Source: ChEMBL document CHEMBL3864175

Experiment: Half life in rat at 0.5 mg/kg, iv by LC-MS/MS analysis
Assay type: ADME, organism-based
Details: in vivo
READOUT_LABEL: half-life (h)
Please reply with the bare figure in h and do not write the unit itself.

*Q* In one line, give reported half-life of the entry COc1cc(C(F)(F)F)ccc1-c1ncnc2cc(S(=O)(=O)Nc3nccs3)ccc12 .
*A* 1.9

###

Test: Intrinsic clearance in rat liver microsomes at 1 uM measured after 40 mins in presence of NADPH by LC-MS/MS analysis
Assay type: ADME
Settings: read-out: CLH
Answer each item with its documented microsomal CLint at 1 µM.

*Q* Dear colleague, please send me the reported microsomal CLint at 1 µM for COc1cc(C(F)(F)F)ccc1-c1cccc2cc(S(=O)(=O)Nc3ccccn3)ccc12 when you can.
*A* 25 µL/min/mg

*Q* Please supply the value of reported microsomal CLint at 1 µM for the item N#Cc1cc(S(=O)(=O)Nc2ncns2)ccc1Oc1ccc(C(F)(F)F)cc1-c1cn[nH]c1
*A* 39 µL/min/mg

*Q* Give the reported value of microsomal CLint at 1 µM for this record: O=S(=O)(Nc1ncns1)c1ccc2c(-c3ccc(C(F)(F)F)cc3O)cccc2c1
*A* 18 µL/min/mg

*Q* Give the reported value of microsomal CLint at 1 µM for this record: COc1cc(C(F)(F)F)ccc1-c1cccc2cc(S(=O)(=O)Nc3ncccn3)ccc12
*A* < 14 µL/min/mg

*Q* Provide only the value of recorded microsomal CLint at 1 µM for O=S(=O)(Nc1ncns1)c1ccc2c(-c3ccc(C(F)(F)F)cc3C3=CCNCC3)cccc2c1
*A* < 14 µL/min/mg

*Q* Return microsomal CLint at 1 µM (reported value) for this compound: COc1cc(C(F)(F)F)ccc1-c1cccc2cc(S(=O)(=O)Nc3ccncn3)ccc12
*A* < 14 µL/min/mg

*Q* Fill in microsomal CLint at 1 µM for record Cn1nccc1-c1cc(C(F)(F)F)ccc1-c1cn(C)c2cc(S(=O)(=O)Nc3ncns3)ccc12
*A* 19 µL/min/mg

*Q* Tell me measured microsomal CLint at 1 µM for COc1cc(C(F)(F)F)ccc1-c1cccc2cc(S(=O)(=O)Nc3ncns3)ccc12 please.
*A* 18 µL/min/mg

*Q* Return value of microsomal CLint at 1 µM for input COc1cc(C(F)(F)F)ccc1-c1cccc2cc(S(=O)(=O)Nc3cncs3)ccc12 , no commentary.
*A* 37 µL/min/mg

*Q* Give recorded microsomal CLint at 1 µM. Cn1nccc1-c1cc(C(F)(F)F)ccc1-c1cccc2cc(S(=O)(=O)Nc3ncns3)ccc12
*A* 21 µL/min/mg

*Q* Using the record for COc1cc(C(F)(F)F)ccc1-c1cccc2cc(S(=O)(=O)Nc3cscn3)ccc12 , state its measured microsomal CLint at 1 µM.
*A* < 14 µL/min/mg

*Q* Determine its reported microsomal CLint at 1 µM: COc1cc(C(F)(F)F)ccc1-c1cccc2cc(S(=O)(=O)Nc3nccs3)ccc12
*A* 52 µL/min/mg

*Q* Supply microsomal CLint at 1 µM value. Item: Cc1cc(C(F)(F)F)ccc1-c1cccc2cc(S(=O)(=O)Nc3ncns3)ccc12
*A* < 14 µL/min/mg

*Q* Tell me measured microsomal CLint at 1 µM for O=S(=O)(Nc1ncns1)c1ccc2c(-c3ccc(C(F)(F)F)cc3Br)cccc2c1 please.
*A* < 14 µL/min/mg

###

Biological target: Sodium channel protein type 9 subunit alpha (Homo sapiens, UniProt Q15858)
Sequence (Q15858 whole entry): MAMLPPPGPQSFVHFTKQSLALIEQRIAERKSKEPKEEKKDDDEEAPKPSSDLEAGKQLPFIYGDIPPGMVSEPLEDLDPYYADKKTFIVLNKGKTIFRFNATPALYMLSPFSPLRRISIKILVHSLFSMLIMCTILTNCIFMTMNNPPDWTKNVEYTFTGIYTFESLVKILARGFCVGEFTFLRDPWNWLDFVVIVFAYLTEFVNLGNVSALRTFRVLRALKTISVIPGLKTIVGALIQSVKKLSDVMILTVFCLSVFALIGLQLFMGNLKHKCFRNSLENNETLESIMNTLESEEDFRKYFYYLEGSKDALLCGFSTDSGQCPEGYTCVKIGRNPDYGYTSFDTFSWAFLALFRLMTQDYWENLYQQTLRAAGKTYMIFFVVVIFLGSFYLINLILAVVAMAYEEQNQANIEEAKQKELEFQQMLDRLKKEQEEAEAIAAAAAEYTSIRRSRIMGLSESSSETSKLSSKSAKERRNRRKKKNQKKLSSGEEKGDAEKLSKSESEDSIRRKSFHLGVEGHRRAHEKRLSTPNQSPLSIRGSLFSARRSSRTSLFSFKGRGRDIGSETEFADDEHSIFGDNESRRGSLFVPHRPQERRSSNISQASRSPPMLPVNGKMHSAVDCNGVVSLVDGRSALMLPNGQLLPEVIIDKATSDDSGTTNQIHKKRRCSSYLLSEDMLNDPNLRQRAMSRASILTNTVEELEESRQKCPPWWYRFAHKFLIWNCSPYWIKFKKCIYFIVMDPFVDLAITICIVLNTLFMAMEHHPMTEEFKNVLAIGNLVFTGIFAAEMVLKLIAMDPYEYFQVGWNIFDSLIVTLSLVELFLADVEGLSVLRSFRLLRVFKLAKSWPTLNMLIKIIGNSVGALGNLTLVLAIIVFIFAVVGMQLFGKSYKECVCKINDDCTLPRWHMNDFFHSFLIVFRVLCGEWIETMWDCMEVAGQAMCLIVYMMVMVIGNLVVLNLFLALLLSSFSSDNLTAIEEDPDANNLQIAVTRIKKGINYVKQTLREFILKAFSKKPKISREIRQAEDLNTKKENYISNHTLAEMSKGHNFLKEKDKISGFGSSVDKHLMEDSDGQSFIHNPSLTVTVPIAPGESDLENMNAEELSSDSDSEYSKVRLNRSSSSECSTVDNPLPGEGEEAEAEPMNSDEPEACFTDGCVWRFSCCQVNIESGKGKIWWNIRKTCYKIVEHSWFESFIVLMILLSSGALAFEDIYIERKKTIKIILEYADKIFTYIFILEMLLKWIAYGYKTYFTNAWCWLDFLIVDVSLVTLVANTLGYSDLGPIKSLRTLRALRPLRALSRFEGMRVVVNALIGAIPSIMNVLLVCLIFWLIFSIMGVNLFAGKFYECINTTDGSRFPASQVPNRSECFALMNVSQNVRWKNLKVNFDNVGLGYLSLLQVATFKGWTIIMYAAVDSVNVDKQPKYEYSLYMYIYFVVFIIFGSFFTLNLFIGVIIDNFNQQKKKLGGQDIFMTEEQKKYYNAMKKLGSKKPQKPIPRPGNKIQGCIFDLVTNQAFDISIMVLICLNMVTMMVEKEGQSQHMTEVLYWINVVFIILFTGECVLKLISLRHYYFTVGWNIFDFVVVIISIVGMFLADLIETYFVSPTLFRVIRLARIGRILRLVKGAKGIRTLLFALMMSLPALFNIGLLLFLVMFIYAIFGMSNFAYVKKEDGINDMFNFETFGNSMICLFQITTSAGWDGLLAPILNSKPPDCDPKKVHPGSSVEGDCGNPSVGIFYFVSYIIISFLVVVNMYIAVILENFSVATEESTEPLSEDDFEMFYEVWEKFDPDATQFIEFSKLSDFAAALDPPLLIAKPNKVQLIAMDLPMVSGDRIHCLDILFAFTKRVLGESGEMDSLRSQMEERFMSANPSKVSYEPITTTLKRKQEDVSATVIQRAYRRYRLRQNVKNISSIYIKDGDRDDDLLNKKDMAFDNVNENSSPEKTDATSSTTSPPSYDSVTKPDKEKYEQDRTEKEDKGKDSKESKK
Assay: Inhibition of human Nav1.7 expressed in HEK293 cells assessed as inhibition of sodium current at holding potential of -125 mV measured for 3 to 5 mins by whole cell voltage clamp method
Format: cell-based
Could you please report measured pIC50 for the items listed next?
The meaning of pIC50 here: minus log10 of the concentration in molar units.

*Q* Answer with the recorded pIC50 for the compound listed here: COc1cc(C(F)(F)F)ccc1-c1cccc2cc(S(=O)(=O)Nc3nccs3)ccc12
*A* 6.23

*Q* State, in one line, measured pIC50 of COc1cc(C(F)(F)F)ccc1-c1cccc2cc(S(=O)(=O)Nc3ccncn3)ccc12
*A* 6.29

*Q* Determine its reported pIC50: COc1cc(C(F)(F)F)ccc1-c1cccc2cc(S(=O)(=O)Nc3ncns3)ccc12
*A* 7.29

*Q* Report pIC50, nothing else, for this compound: O=S(=O)(Nc1ncns1)c1ccc2c(-c3ccc(C(F)(F)F)cc3Br)cccc2c1
*A* 6.80

*Q* Specify pIC50 for O=S(=O)(Nc1ncns1)c1ccc2c(-c3ccc(C(F)(F)F)cc3C3=CCNCC3)cccc2c1 and stop.
*A* 7.43

*Q* # return recorded pIC50 for input COc1cc(C(F)(F)F)ccc1-c1cccc2cc(S(=O)(=O)Nc3ncccn3)ccc12
*A* 5.82

*Q* Return reported pIC50. Input compound: Cn1nccc1-c1cc(C(F)(F)F)ccc1-c1cn(C)c2cc(S(=O)(=O)Nc3ncns3)ccc12
*A* 6.92

*Q* Identify the reported pIC50 for the following entry. COc1cc(C(F)(F)F)ccc1-c1cccc2cc(S(=O)(=O)Nc3cscn3)ccc12
*A* 5.85

*Q* Give pIC50 for COc1cc(C(F)(F)F)ccc1-c1ncnc2cc(S(=O)(=O)Nc3nccs3)ccc12
*A* 6.80

*Q* Please report the measured pIC50 for Cc1cc(C(F)(F)F)ccc1-c1cccc2cc(S(=O)(=O)Nc3ncns3)ccc12
*A* 7.32

###

Test: Clearance in rat at 0.5 mg/kg, iv by LC-MS/MS analysis
Type: ADME, organism-based
Settings: in vivo
READOUT_LABEL: clearance (mL/min/kg)
Give your result in mL/min/kg as a bare value.

*Q* Check the records and state clearance for COc1cc(C(F)(F)F)ccc1-c1cccc2cc(S(=O)(=O)Nc3ncns3)ccc12
*A* 86.7

*Q* Give me measured clearance, please, for this compound: O=S(=O)(Nc1ncns1)c1ccc2c(-c3ccc(C(F)(F)F)cc3C3=CCNCC3)cccc2c1
*A* 90

*Q* State its clearance: COc1cc(C(F)(F)F)ccc1-c1n[nH]c(=O)c2cc(S(=O)(=O)Nc3nccs3)ccc12
*A* 40

###

Test: Apparent permeability in MDCK cells
Assay type: ADME, cell-based, Canis lupus familiaris
Conditions: dog
READOUT_LABEL: Papp

*Q* Tell me measured Papp for Cn1nccc1-c1cc(C(F)(F)F)ccc1-c1cccc2cc(S(=O)(=O)Nc3ncns3)ccc12 please.
*A* < 2 ×10⁻⁶ cm/s

*Q* Return Papp for the following molecule: Cc1cc(C(F)(F)F)ccc1-c1cccc2cc(S(=O)(=O)Nc3ncns3)ccc12
*A* > 5 ×10⁻⁶ cm/s

*Q* Respond only with Papp recorded for O=S(=O)(Nc1ncns1)c1ccc2c(-c3ccc(C(F)(F)F)cc3O)cccc2c1
*A* < 2 ×10⁻⁶ cm/s
